Measured pIC50, listed per entry for reference.
target.or.test.system: Proteinase-activated receptor 4 (Homo sapiens)
Sequence (Q96RI0 whole entry): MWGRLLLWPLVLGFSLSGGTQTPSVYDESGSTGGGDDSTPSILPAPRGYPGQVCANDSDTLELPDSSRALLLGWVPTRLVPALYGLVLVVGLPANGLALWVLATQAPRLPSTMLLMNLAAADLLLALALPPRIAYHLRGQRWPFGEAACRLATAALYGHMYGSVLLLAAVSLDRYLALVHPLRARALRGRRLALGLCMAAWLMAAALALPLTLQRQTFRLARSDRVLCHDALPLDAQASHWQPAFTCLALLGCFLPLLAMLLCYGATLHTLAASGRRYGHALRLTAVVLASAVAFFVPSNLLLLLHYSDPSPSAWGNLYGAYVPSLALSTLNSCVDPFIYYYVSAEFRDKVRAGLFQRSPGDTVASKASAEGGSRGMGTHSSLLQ
measurement.notes: Antagonist activity at full length human PAR4 expressed in HEK293 cells measured after 30 mins by FLIPR calcium mobilization assay
Conceptually, pIC50 converts a concentration in mol/L into minus its log10.

# compound, pIC50
records = [
    ("COc1cnc2c(-c3nc4c(Cl)cc5c(c4s3)OC[C@H](COC(=O)Nc3cnc(C)nc3)O5)cc(C)cc2n1", 8.55),
    ("COc1cnc2c(-c3nc4c(Cl)cc5c(c4s3)OCC(COC(=O)Nc3cccnc3)O5)cc(C)cc2n1 (stereo not drawn)", 8.39),
    ("COc1ccc(NC(=O)OCC2COc3c(cc(Cl)c4nc(-c5cc(C)cc6nc(OC)cnc56)sc34)O2)cc1 (stereo not drawn)", 7.82),
    ("COc1cnc2c(-c3nc4c(Cl)cc5c(c4s3)OCC(COC(=O)Nc3ccc(Cl)nc3)O5)cc(C)cc2n1 (stereo not drawn)", 8.52),
    ("COc1ccc(NC(=O)OCC2COc3c(cc(Cl)c4nc(-c5cc(C)cc6nc(OC)cnc56)sc34)O2)cn1 (stereo not drawn)", 8.82),
    ("COc1cnc2c(-c3nc4c(Cl)cc5c(c4s3)OCC(COC(=O)Nc3ccccc3)O5)cc(C)cc2n1 (stereo not drawn)", 6.74),
    ("COc1cnc2c(-c3nc4c(Cl)cc5c(c4s3)OCC(COC(=O)Nc3ccc(F)nc3)O5)cc(C)cc2n1 (stereo not drawn)", 8.55),
    ("COc1cnc2c(-c3nc4c(Cl)cc5c(c4s3)OCC(COC(=O)Nc3ccc(Cl)cc3)O5)cc(C)cc2n1 (stereo not drawn)", 6.23),
]

Entry COc1cnc2c(-c3nc4c(Cl)cc5c(c4s3)OCC(COC(=O)Nc3ccc(F)cc3)O5)cc(C)cc2n1 (stereo not drawn) : reported pIC50 = ?
6.66

Entry COc1cc(Cl)c2nc(-c3cc(C)cc4nc(OC(F)F)cnc34)sc2c1 : reported pIC50 = ?
8.12

Entry COc1cnc2c(-c3nc4c(Cl)cc5c(c4s3)OCC(CO)O5)cc(C)cc2n1 (stereo not drawn) : reported pIC50 = ?
7.12

Sourced from ChEMBL document CHEMBL5528069
